// data source = ChEMBL document CHEMBL1141551

Consider the following pIC50 values measured on Protein tyrosine phosphatase type IVA 3 (Homo sapiens, UniProt O75365).
Sequence (O75365 whole entry): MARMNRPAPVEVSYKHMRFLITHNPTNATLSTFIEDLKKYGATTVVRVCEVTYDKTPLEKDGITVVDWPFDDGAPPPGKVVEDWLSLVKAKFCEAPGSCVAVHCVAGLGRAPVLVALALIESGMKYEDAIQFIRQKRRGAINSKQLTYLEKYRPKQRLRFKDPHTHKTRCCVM
To interpret pIC50, take it as minus log10 of a concentration measured in moles per litre.

Reference set (2 entries):
>>> print(df.to_string())
                                test_smiles  readout_number
0  O=C1NC(=S)S/C1=C/c1ccc(-c2ccccc2C(=O)O)o1            4.88
1  O=C1NC(=O)/C(=C\c2cccn2-c2ccc(C(=O)O)cc2)N1            4.55

Now examine the next entry.
Prompt line: API: value(readout= pIC50, system= Protein tyrosine phosphatase type IVA 3 (Homo sapiens, UniProt O75365), query= `COc1ccc(-n2nnnc2SCC(=O)c2ccc(O)c(O)c2)cc1` )
Response line: 4.35
